Tested on: Saccharomyces cerevisiae
Test: protein stability index of tFT-peptide fusion (C-terminal peptide) (PSI (0-1 scale)); higher = more stable (slower turnover)
Settings: genetic background: cdc53-1; temperature: 37 C
Cut-off 0.6 on protein stability index, inclusive. At or above means Criterion met; below means Criterion not met.

record_sequence=YFFFFLHFNFAF tested_system="Saccharomyces cerevisiae" class="Criterion not met"
record_sequence=SWWGDVVWFVVC tested_system="Saccharomyces cerevisiae" class="Criterion met"
record_sequence=WGCIFWFFDVRV tested_system="Saccharomyces cerevisiae" class="Criterion not met"
record_sequence=VLYLQCITSAGH tested_system="Saccharomyces cerevisiae" class="Criterion not met"
record_sequence=LLLCVVLVSVFG tested_system="Saccharomyces cerevisiae" class="Criterion not met"
record_sequence=LLLPVFRFFFVN tested_system="Saccharomyces cerevisiae" class="Criterion met"
record_sequence=KVALWRRGVLAA tested_system="Saccharomyces cerevisiae" class="Criterion not met"
record_sequence=LFLSFLLLYFRP tested_system="Saccharomyces cerevisiae" class="Criterion not met"
record_sequence=GCVMSVCSLAVS tested_system="Saccharomyces cerevisiae" class="Criterion met"
record_sequence=FGGVFCVMARLV tested_system="Saccharomyces cerevisiae" class="Criterion met"
record_sequence=LPPFGLFLFVFI tested_system="Saccharomyces cerevisiae" class="Criterion not met"
record_sequence=VVIWWFSAVVSV tested_system="Saccharomyces cerevisiae" class="Criterion not met"
record_sequence=SLGHIGFWRFAG tested_system="Saccharomyces cerevisiae" class="Criterion met"
record_sequence=HFLRYCSWFGLL tested_system="Saccharomyces cerevisiae" class="Criterion met"
record_sequence=VPSMSIVWCRVL tested_system="Saccharomyces cerevisiae" class="Criterion not met"
record_sequence=VAFLWVAFCFSG tested_system="Saccharomyces cerevisiae" class="Criterion not met"
record_sequence=SASPFYLPPPPV tested_system="Saccharomyces cerevisiae" class="Criterion met"
record_sequence=TLCFRLSWVLLV tested_system="Saccharomyces cerevisiae" class="Criterion not met"
record_sequence=FLCLLASFVVCF tested_system="Saccharomyces cerevisiae" class="Criterion not met"
record_sequence=LKCFLVLTFWFS tested_system="Saccharomyces cerevisiae" class="Criterion not met"
record_sequence=WGIPRRPTLFIP tested_system="Saccharomyces cerevisiae" class="Criterion met"
record_sequence=FQPLELFFVCVF tested_system="Saccharomyces cerevisiae" class="Criterion not met"
record_sequence=GSLPERPLRYVC tested_system="Saccharomyces cerevisiae" class="Criterion met"
record_sequence=GVRAGVRRAGVG tested_system="Saccharomyces cerevisiae" class="Criterion not met"
record_sequence=MSQVRYQRATRA tested_system="Saccharomyces cerevisiae" class="Criterion met"
record_sequence=LLVSVVFVSRFF tested_system="Saccharomyces cerevisiae" class="Criterion not met"
record_sequence=WIYKIVTYEKKS tested_system="Saccharomyces cerevisiae" class="Criterion met"
record_sequence=HVSVIRRGICCA tested_system="Saccharomyces cerevisiae" class="Criterion not met"
record_sequence=SYGNGIPIRMLH tested_system="Saccharomyces cerevisiae" class="Criterion met"
record_sequence=LRSPCALVLLLI tested_system="Saccharomyces cerevisiae" class="Criterion not met"
record_sequence=KALSSSYFGTRL tested_system="Saccharomyces cerevisiae" class="Criterion met"
record_sequence=GGSHVWKFYRNF tested_system="Saccharomyces cerevisiae" class="Criterion met"
record_sequence=PRINTFVVVRVC tested_system="Saccharomyces cerevisiae" class="Criterion not met"
record_sequence=LFLFFFLPPLLF tested_system="Saccharomyces cerevisiae" class="Criterion not met"
record_sequence=VFLVRTVTQISA tested_system="Saccharomyces cerevisiae" class="Criterion not met"
record_sequence=CVFVRCVDCMSG tested_system="Saccharomyces cerevisiae" class="Criterion not met"
record_sequence=ISVSVVFFVLRF tested_system="Saccharomyces cerevisiae" class="Criterion not met"
record_sequence=APGGRGAAGPSC tested_system="Saccharomyces cerevisiae" class="Criterion met"
record_sequence=WRLRIAAVVRSS tested_system="Saccharomyces cerevisiae" class="Criterion met"
record_sequence=YTCFLFLLRCMT tested_system="Saccharomyces cerevisiae" class="Criterion not met"
record_sequence=VVGVVVCWGRGW tested_system="Saccharomyces cerevisiae" class="Criterion met"
record_sequence=KAEKNSKKTSTE tested_system="Saccharomyces cerevisiae" class="Criterion met"
record_sequence=SSGSLLLPRFLT tested_system="Saccharomyces cerevisiae" class="Criterion met"
record_sequence=ASICAFFCWFLV tested_system="Saccharomyces cerevisiae" class="Criterion not met"
record_sequence=VLGARWHWIYIA tested_system="Saccharomyces cerevisiae" class="Criterion not met"
record_sequence=FNLFWPVSAFVV tested_system="Saccharomyces cerevisiae" class="Criterion not met"
record_sequence=CVLGWCSLIAWC tested_system="Saccharomyces cerevisiae" class="Criterion not met"
record_sequence=VTGFGVAIVCVT tested_system="Saccharomyces cerevisiae" class="Criterion not met"
record_sequence=WLVVGGVVLLVV tested_system="Saccharomyces cerevisiae" class="Criterion not met"
record_sequence=VLVVLVVCRRAE tested_system="Saccharomyces cerevisiae" class="Criterion not met"
record_sequence=LHRLRFTLVQVS tested_system="Saccharomyces cerevisiae" class="Criterion not met"
record_sequence=VIWIRMISFFVW tested_system="Saccharomyces cerevisiae" class="Criterion not met"
record_sequence=FNMLFVVRLLYM tested_system="Saccharomyces cerevisiae" class="Criterion not met"
record_sequence=FVSVAGFIVVVV tested_system="Saccharomyces cerevisiae" class="Criterion not met"
record_sequence=LQSYVSRLVRLS tested_system="Saccharomyces cerevisiae" class="Criterion met"
record_sequence=CWLFVWVRVISL tested_system="Saccharomyces cerevisiae" class="Criterion not met"
record_sequence=SSMSAVFRLQVC tested_system="Saccharomyces cerevisiae" class="Criterion met"
record_sequence=LLHFVLYFLSCT tested_system="Saccharomyces cerevisiae" class="Criterion not met"
record_sequence=AFPSSVILMVFS tested_system="Saccharomyces cerevisiae" class="Criterion not met"
record_sequence=TLNKDILIIKCA tested_system="Saccharomyces cerevisiae" class="Criterion not met"
record_sequence=PPPRSLSPPLLS tested_system="Saccharomyces cerevisiae" class="Criterion met"
record_sequence=LVFFLFFFRCFS tested_system="Saccharomyces cerevisiae" class="Criterion not met"
record_sequence=FSFPAFTFIVSI tested_system="Saccharomyces cerevisiae" class="Criterion not met"
record_sequence=FFVLGPVVMSIH tested_system="Saccharomyces cerevisiae" class="Criterion not met"
record_sequence=CLFRVCLFILSI tested_system="Saccharomyces cerevisiae" class="Criterion not met"
record_sequence=VWFFLLSFANRL tested_system="Saccharomyces cerevisiae" class="Criterion not met"
record_sequence=GLIICRRCLWCC tested_system="Saccharomyces cerevisiae" class="Criterion not met"
record_sequence=PPPPHSAPLFLS tested_system="Saccharomyces cerevisiae" class="Criterion met"
record_sequence=FFSQLFLEIVAA tested_system="Saccharomyces cerevisiae" class="Criterion not met"
record_sequence=GCGWVFWVVDWG tested_system="Saccharomyces cerevisiae" class="Criterion not met"
record_sequence=WYLLCESCLLCL tested_system="Saccharomyces cerevisiae" class="Criterion not met"
record_sequence=QRFASFFFLHLS tested_system="Saccharomyces cerevisiae" class="Criterion not met"
record_sequence=LLTAARAQLFAV tested_system="Saccharomyces cerevisiae" class="Criterion met"
record_sequence=AVTMSYQCGIFI tested_system="Saccharomyces cerevisiae" class="Criterion met"
record_sequence=PFGPTFSPRPFR tested_system="Saccharomyces cerevisiae" class="Criterion met"
record_sequence=VGYHCIVGVIFL tested_system="Saccharomyces cerevisiae" class="Criterion not met"
record_sequence=SCLRVYFSVVVS tested_system="Saccharomyces cerevisiae" class="Criterion not met"
record_sequence=FLAPPFLPPPPA tested_system="Saccharomyces cerevisiae" class="Criterion met"

----------
Test system: Saccharomyces cerevisiae
Assay: protein stability index of tFT-peptide fusion (C-terminal peptide) (PSI (0-1 scale)); higher = more stable (slower turnover)
Conditions: genetic background: das1 deletion; temperature: 30 C
# protein stability index per record follows
assay.metric: protein stability index

record_sequence="FFFATQRDLKRT [YDR431W C-terminal 12 aa]" measured=0.715
record_sequence="GSPNSLLLNIGR [PHB1 C-terminal 12 aa]" measured=0.698
record_sequence="TVGIHSPIDEKC [ATG4 C-terminal 12 aa]" measured=0.699
record_sequence="IYVCGRLTNDRK [YIL171W-A C-terminal 12 aa]" measured=0.687
record_sequence="ITNATFREIDDA [SEC12 C-terminal 12 aa]" measured=0.692
record_sequence="NFQTHYRDELLQ [REH1 C-terminal 12 aa]" measured=0.729
record_sequence="HYEAVRANFEGA [PEX6 C-terminal 12 aa]" measured=0.702
record_sequence="IQFFSQCTSCTV [YLR286W-A C-terminal 12 aa]" measured=0.507
record_sequence="IARPFELKYFGR [FCY21 C-terminal 12 aa]" measured=0.72
record_sequence="AVGIQSSESLLM [YMR175W-A C-terminal 12 aa]" measured=0.688
record_sequence="SSWISKHSSVTD [YDL109C C-terminal 12 aa]" measured=0.696
record_sequence="LRNQSPFTSSNE [YKL107W C-terminal 12 aa]" measured=0.695

----------
System: Saccharomyces cerevisiae
Assay: protein stability index of tFT-peptide fusion (C-terminal peptide) (PSI (0-1 scale)); higher = more stable (slower turnover)
Settings: genetic background: wild type; temperature: 30 C
# protein stability index per record follows
assay.metric: protein stability index

record_sequence=KSIVAQGRLKPR assay_metric="protein stability index" measured=0.685
record_sequence=PRGYCGLGRPAR assay_metric="protein stability index" measured=0.631
record_sequence=RVQLTLKGTGVT assay_metric="protein stability index" measured=0.629
record_sequence=ENMVLQKRGIKV assay_metric="protein stability index" measured=0.502
record_sequence=PPPPPAPPPTPL assay_metric="protein stability index" measured=0.556
record_sequence=DWEPGGGGRMVG assay_metric="protein stability index" measured=0.703
record_sequence=MTYSVWENVLTW assay_metric="protein stability index" measured=0.733
record_sequence=RSITFFPVCLVK assay_metric="protein stability index" measured=0.382
record_sequence=GFPGSYSKVLCL assay_metric="protein stability index" measured=0.662
record_sequence=LPAHPPAAPGAP assay_metric="protein stability index" measured=0.692
